# study system: SERT A331D (Homo sapiens, UniProt P31645, A331D)
# Sequence (P31645 whole entry A331D): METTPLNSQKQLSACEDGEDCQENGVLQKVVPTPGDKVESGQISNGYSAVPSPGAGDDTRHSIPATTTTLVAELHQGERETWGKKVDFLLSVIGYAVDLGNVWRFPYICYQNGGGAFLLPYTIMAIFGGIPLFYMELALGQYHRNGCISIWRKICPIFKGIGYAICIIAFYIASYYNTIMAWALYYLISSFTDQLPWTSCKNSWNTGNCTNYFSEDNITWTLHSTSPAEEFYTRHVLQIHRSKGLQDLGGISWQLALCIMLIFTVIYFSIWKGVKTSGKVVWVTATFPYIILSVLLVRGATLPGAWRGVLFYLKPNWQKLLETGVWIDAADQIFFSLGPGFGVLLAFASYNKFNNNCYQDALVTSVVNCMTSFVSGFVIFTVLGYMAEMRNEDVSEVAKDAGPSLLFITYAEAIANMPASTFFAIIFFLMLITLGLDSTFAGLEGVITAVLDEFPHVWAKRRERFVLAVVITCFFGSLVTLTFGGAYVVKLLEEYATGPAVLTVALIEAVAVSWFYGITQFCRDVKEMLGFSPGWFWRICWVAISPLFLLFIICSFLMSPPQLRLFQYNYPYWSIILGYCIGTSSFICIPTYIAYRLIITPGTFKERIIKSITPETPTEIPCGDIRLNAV
# test method notes: [3H]IMI dissociation rate assay
# cond: SERT A331D (TM6); read-out: Lu AF60097 allosteric potency ([^3H]IMI dissociation IC50)
measured metric: IC50 (µM)
Quick note: give the figure in µM, leave out the unit.

What measured IC50 goes with NC(=O)c1ccc2c(c1)CO[C@@]2(CCCN1CCC(c2ccc3ccc(=O)[nH]c3c2)CC1)c1ccc(F)cc1 [Lu AF60097] ? 9.1

----------
# study system: SERT A486E (Homo sapiens, UniProt P31645, A486E)
# Sequence (P31645 whole entry A486E): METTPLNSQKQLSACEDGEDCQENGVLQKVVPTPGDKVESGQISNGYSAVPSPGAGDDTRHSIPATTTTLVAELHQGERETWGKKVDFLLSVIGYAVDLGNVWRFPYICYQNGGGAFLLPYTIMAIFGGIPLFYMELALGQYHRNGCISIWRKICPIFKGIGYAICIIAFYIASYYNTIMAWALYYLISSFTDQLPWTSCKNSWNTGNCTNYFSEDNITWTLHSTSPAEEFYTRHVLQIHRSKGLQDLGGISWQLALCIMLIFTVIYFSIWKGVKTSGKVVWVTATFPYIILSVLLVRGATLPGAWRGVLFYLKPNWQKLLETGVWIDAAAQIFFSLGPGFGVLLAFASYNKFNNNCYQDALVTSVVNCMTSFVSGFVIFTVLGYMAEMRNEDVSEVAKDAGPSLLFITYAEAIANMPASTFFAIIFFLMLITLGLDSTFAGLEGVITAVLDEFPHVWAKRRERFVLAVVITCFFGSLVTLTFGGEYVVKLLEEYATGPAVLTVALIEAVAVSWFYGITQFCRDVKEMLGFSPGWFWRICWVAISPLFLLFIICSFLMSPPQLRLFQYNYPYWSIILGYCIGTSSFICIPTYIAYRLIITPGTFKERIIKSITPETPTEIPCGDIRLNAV
# test method notes: [3H]IMI dissociation rate assay
# cond: SERT A486E (TM10); read-out: Lu AF60097 allosteric potency ([^3H]IMI dissociation IC50)
measured metric: pIC50
Units for pIC50: none; it is -log10 of a concentration expressed in mol/L.

What measured pIC50 goes with `NC(=O)c1ccc2c(c1)CO[C@@]2(CCCN1CCC(c2ccc3ccc(=O)[nH]c3c2)CC1)c1ccc(F)cc1` ? 6.33

----------
# study system: SERT R104K (Homo sapiens, UniProt P31645, R104K)
# Sequence (P31645 whole entry R104K): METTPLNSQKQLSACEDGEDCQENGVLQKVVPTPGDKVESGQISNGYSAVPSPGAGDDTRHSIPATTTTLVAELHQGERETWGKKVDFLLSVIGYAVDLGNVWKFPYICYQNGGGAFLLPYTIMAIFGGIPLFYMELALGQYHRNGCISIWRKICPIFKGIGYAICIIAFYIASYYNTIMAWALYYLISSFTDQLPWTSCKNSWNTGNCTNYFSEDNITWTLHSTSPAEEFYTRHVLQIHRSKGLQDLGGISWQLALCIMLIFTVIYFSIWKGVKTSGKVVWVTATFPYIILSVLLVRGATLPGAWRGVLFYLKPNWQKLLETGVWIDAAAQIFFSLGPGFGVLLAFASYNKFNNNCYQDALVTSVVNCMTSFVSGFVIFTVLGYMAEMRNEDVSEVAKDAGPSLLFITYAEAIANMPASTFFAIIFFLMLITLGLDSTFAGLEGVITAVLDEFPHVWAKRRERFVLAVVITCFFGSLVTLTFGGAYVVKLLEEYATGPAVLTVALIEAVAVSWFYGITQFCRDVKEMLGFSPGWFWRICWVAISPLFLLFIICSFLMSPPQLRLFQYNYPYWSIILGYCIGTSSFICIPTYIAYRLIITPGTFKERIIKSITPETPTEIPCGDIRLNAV
# test method notes: [3H]IMI dissociation rate assay
# cond: SERT R104K (TM1); read-out: Lu AF60097 allosteric potency ([^3H]IMI dissociation IC50)
measured metric: IC50 (nM)
Quick note: give the figure in nM, leave out the unit.

Look up IC50 with SERT R104K (Homo sapiens, UniProt P31645, R104K) for this compound: NC(=O)c1ccc2c(c1)CO[C@@]2(CCCN1CCC(c2ccc3ccc(=O)[nH]c3c2)CC1)c1ccc(F)cc1 [Lu AF60097] 630

----------
# study system: SERT F556R (Homo sapiens, UniProt P31645, F556R)
# Sequence (P31645 whole entry F556R): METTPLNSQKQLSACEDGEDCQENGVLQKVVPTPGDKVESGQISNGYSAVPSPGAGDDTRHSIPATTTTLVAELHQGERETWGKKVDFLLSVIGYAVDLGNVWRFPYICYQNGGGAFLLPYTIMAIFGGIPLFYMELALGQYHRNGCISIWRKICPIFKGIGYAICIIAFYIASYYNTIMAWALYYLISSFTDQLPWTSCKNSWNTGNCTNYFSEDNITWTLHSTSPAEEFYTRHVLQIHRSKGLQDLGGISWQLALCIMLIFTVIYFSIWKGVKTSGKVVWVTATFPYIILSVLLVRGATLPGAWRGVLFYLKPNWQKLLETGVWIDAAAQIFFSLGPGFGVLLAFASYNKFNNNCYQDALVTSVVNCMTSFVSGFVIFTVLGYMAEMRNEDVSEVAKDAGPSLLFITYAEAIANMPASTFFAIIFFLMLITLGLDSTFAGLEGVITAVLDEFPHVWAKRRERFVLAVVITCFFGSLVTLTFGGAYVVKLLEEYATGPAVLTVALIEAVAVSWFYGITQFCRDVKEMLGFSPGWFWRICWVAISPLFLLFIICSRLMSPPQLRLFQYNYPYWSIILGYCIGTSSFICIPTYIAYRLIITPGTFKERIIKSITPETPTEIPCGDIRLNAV
# test method notes: [3H]IMI dissociation rate assay
# cond: SERT F556R (TM11); read-out: Lu AF60097 allosteric potency ([^3H]IMI dissociation IC50)
measured metric: IC50

What measured IC50 goes with `NC(=O)c1ccc2c(c1)CO[C@@]2(CCCN1CCC(c2ccc3ccc(=O)[nH]c3c2)CC1)c1ccc(F)cc1` ? ≥ 10 µM

----------
# study system: SERT I179F (Homo sapiens, UniProt P31645, I179F)
# Sequence (P31645 whole entry I179F): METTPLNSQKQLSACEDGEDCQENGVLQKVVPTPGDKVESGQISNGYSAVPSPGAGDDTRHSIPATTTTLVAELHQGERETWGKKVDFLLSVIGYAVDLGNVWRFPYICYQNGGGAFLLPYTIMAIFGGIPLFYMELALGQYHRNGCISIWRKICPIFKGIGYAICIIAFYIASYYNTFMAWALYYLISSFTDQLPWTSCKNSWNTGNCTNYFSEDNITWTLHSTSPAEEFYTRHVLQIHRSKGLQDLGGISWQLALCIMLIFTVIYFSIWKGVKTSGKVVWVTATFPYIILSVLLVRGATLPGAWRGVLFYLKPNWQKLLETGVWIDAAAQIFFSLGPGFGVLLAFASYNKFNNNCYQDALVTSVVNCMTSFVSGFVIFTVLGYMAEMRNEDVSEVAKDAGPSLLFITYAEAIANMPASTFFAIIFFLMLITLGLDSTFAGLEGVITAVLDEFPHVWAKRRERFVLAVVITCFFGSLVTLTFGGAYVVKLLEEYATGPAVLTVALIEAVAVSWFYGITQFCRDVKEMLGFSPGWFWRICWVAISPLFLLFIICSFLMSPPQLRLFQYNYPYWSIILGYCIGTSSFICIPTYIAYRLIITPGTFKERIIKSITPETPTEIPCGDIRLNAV
# test method notes: [3H]IMI dissociation rate assay
# cond: SERT I179F (TM3); read-out: Lu AF60097 allosteric potency ([^3H]IMI dissociation IC50)
measured metric: pIC50
Units for pIC50: none; it is -log10 of a concentration expressed in mol/L.

What measured pIC50 goes with `NC(=O)c1ccc2c(c1)CO[C@@]2(CCCN1CCC(c2ccc3ccc(=O)[nH]c3c2)CC1)c1ccc(F)cc1` ? 6.36

----------
# study system: SERT WT (Homo sapiens)
# Construct: expressed in transfected cells; host or cells: COS-7
# Sequence (P31645 whole entry): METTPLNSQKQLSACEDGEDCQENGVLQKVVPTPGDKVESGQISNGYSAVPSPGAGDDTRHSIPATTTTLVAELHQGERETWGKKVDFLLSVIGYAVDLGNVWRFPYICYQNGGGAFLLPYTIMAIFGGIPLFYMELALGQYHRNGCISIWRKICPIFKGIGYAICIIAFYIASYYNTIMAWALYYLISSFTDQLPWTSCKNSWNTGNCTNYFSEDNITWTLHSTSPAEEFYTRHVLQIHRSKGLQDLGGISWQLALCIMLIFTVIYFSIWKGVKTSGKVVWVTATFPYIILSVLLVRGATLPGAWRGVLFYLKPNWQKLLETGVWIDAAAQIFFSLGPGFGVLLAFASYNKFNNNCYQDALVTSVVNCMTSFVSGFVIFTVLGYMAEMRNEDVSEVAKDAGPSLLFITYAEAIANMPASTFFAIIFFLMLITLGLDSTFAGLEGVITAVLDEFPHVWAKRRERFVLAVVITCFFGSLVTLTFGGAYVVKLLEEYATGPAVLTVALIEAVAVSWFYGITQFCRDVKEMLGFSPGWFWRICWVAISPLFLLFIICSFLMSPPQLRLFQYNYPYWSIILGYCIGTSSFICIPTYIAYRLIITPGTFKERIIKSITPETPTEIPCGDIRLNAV
# test method notes: [3H]S-CIT dissociation rate assay (allosteric potency)
# Type: binding
# cond: read-out: Allosteric potency inhibition of [^3H]S-CIT dissociation (IC50)
Form field: IC50 (one value per entry).
Quick note: give the figure in µM, leave out the unit.

Look up IC50 with SERT WT (Homo sapiens) for this compound: NC(=O)c1ccc2c(c1)CO[C@@]2(CCCN1CC=C(c2ccc3ccc(=O)[nH]c3c2)CC1)c1ccc(F)cc1 [AF] 10.4

Would you kindly repeat that for NC(=O)c1ccc2c(c1)CO[C@@]2(CCCN1CCC(c2ccc3ccc(=O)[nH]c3c2)CC1)c1ccc(F)cc1 [Lu AF60097] ? 6.5

Would you kindly repeat that for NC(=O)c1ccc2c(c1)CO[C@@]2(CCCN1CCC(c2ccc3c(c2)NC(=O)CC3)CC1)c1ccc(F)cc1 [AE] ? 33.8
